- targetEntity: Hck (UniProt P08631)
- Sequence (P08631 whole entry, looked up): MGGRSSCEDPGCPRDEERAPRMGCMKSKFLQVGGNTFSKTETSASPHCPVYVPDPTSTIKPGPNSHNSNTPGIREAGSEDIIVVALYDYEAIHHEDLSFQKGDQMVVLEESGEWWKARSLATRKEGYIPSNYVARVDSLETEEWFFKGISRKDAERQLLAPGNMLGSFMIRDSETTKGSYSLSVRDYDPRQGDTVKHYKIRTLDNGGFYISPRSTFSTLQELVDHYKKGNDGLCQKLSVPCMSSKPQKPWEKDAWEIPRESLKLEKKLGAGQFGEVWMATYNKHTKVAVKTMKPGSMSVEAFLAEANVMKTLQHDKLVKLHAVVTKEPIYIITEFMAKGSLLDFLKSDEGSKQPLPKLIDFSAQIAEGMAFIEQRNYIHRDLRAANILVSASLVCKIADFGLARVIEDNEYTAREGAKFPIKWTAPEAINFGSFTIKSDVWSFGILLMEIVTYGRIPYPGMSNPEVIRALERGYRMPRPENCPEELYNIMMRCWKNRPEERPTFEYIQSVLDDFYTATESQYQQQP
- experimentNotes: phosphorylation enrichment, bacterial display (enrichment ratio); higher = better substrate or ligand; peptides without Tyr show the background
propertyLabel: phosphorylation enrichment
Numbers only.

Please review the following examples before continuing.
- CPTIHYNYMCN [TP53_Y234_T230P]: 0.429
- STTSDYQWDVS [MTDH_Y364]: 0.508
- DPTFGYEDFTR [SESN2_Y323]: 0.595
- KEAVLYPHLPP [SQSTM1_Y383_A381V]: 0.385
- SLLVVYPWTQR [HBB_Y36_R31S]: 0.395
- HLVLNYGVCVC [JAK2_Y613]: 0.985
- ANVIHYFPTQA [SLC25A4_Y81_R80H]: 0.446
- NTPNAYLRVNV [ADD2_Y440_T439A]: 0.469

Return reported phosphorylation enrichment values for all items listed beneath this line.
1. YGGLRCGYGVL [KRTAP20-2_Y13_Y13C]
2. SVTCTSSPALN [TP53_Y126_Y126S]

1. 1.5
2. 0.526

Return reported phosphorylation enrichment values for all items listed beneath this line.
1. KAFDMYSGDVM [FAM3D_Y122]
2. VLRRVYVDFEG [KMT2B_Y1707]
3. SARVRYLMAEK [LDHB_Y173_F171V]
4. PLQKIYNYNVL [SLC4A1_Y553_T552I]

1. 1.23
2. 0.502
3. 0.423
4. 0.564

###

- targetEntity: EPHB2 (UniProt P29323)
- Sequence (P29323 whole entry, looked up): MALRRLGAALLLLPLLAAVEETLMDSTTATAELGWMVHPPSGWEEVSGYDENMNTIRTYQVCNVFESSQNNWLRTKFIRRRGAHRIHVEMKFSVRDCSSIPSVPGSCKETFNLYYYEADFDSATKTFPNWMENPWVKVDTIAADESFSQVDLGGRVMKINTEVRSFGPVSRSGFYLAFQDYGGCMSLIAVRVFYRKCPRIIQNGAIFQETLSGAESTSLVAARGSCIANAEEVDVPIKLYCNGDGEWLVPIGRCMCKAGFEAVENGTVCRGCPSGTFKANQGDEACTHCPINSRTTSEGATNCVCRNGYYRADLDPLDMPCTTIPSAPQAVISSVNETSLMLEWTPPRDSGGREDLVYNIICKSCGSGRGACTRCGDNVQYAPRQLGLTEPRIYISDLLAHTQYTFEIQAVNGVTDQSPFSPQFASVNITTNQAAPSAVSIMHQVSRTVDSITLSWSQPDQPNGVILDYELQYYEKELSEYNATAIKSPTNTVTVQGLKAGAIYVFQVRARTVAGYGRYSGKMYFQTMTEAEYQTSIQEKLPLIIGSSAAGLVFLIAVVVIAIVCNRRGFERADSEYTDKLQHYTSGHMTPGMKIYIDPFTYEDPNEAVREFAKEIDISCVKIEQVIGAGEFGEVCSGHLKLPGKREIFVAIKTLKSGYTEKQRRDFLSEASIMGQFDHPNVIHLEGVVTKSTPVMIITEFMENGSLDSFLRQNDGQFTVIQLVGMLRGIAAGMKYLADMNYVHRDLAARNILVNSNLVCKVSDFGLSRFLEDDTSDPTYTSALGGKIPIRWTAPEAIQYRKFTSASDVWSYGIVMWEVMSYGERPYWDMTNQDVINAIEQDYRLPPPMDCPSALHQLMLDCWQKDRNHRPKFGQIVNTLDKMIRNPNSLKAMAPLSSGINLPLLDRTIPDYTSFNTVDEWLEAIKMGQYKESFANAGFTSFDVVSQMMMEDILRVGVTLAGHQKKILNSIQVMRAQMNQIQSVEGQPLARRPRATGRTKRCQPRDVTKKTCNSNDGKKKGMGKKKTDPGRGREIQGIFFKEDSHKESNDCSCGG
- experimentNotes: phosphorylation enrichment, bacterial display (enrichment ratio); higher = better substrate or ligand; peptides without Tyr show the background
propertyLabel: phosphorylation enrichment
One number for each entry.

Please review the following examples before continuing.
- GMSQAYSFSQR [DES_Y5_S7F]: 0.453
- NWGSPYKSDGC [ZNF347_Y261_N264D]: 0.51
- VDLIVYLRTNP [TK2_Y181]: 0.589
- YEEDSYVTRSQ [RET_Y905_K907T]: 0.565
- ALDRPYTSKHS [NANS_Y71_E68D]: 0.508
- HGEAFYSEVKA [PAK5_Y182_P187A_YF]: 1.47
- KLFFIYTPGTT [SLC27A4_Y245_S247P_YF]: 0.675
- GGDGSYVSVPS [TNNI3K_Y425]: 0.431

Return reported phosphorylation enrichment values for all items listed beneath this line.
1. TLQVMYGCDVG [HLA-B_Y123_S121V]
2. VPVDGYISGLL [PAK6_Y81_M76V]
3. HEDPMYDIIRD [RP9_Y142]
4. LRAGVYPEKDQ [DNM2_Y626]
5. PLQKIYNYNVL [SLC4A1_Y553_T552I]

[0.56, 0.85, 3.85, 0.498, 1.05]

Return reported phosphorylation enrichment values for all items listed beneath this line.
1. DWRQEYVLNES [TGM1_Y267]
2. WASGIYFVPKG [APBB1IP_Y340_R335W_YF]
3. KKGIVYIFNGR [ITGAV_Y404]
4. LENSTYQYICV [CRB1_Y760_R764C]
5. ADRSCYDLSCR [GARS1_Y467_H472R]
6. QTSTDYDIRFF [CSNK2A1_Y131_L128S_YF]
7. VILARYGPAWR [CYP2D6_Y124_F120I]
8. DRLANYLEKVR [KRT40_Y103_S102N]

1: 0.817; 2: 10; 3: 0.507; 4: 8.2; 5: 0.591; 6: 1.22; 7: 0.614; 8: 0.424

Return reported phosphorylation enrichment values for all items listed beneath this line.
1. FSKTQYNQVPS [CXADR_Y318_YF]
2. EDASEYYENYI [PARP4_Y214_F215Y]
3. KKKKQYKDKFL [CASK_Y708_YF]
4. TTPAVYARVAK [CTRB2_Y246]
5. LGKLIYPVGFW [NTHL1_Y177]

0.858
0.761
0.634
0.505
1.02

###

- targetEntity: c-Src SH2
- experimentNotes: SH2 binding enrichment of the phosphorylated peptide, bacterial display (enrichment ratio); higher = better substrate or ligand; peptides without Tyr show the background
Consider the following partition of reported SH2 binding enrichment into named classes: bottom range (below 0.5), center range (0.5 to below 0.9), top range (0.9 or more)

// below: answered sequences
• HGEAFYSEVKA [PAK5_Y182_P187A_YF] = top range
• REGAKYVSHGT [ASS1_Y113_A118T] = center range
• EVVGRYSVHYA [MLH1_Y183_N187Y] = center range

# classify by SH2 binding enrichment band: RSSNTYTLMDV [ALCAM_Y298_T301M]
top range

Lookup LTSKPYAFTAQ [NDUFS1_Y236_R241Q]
center range

Lookup LQFRNYQQLFD [MAN2A1_Y442_K440R]
top range

Lookup NNPAYYVLEGV [INPPL1_Y987]
top range

Lookup SVTCTYSPAIN [TP53_Y126_L130I]
bottom range

Lookup LYSGDCYRIQG [DDR2_Y740_Y740C]
center range

Lookup RKPDIYGRLAS [MCM4_Y459_E460G]
top range

Lookup GSERDYTYDEL [EIF2S2_Y174_E177D]
top range

Lookup ITNLLYHLVGW [GBA_Y412_V414L]
top range

Lookup GLAELYEFKKK [CKAP5_Y1854_YF]
center range

Lookup GHLYANDWISI [BEST1_Y227_Y227N]
top range

Lookup CTTIHYIFMCN [TP53_Y234_N235I_YF]
center range

###

- targetEntity: FGFR3 (UniProt P22607)
- Sequence (P22607 whole entry, looked up): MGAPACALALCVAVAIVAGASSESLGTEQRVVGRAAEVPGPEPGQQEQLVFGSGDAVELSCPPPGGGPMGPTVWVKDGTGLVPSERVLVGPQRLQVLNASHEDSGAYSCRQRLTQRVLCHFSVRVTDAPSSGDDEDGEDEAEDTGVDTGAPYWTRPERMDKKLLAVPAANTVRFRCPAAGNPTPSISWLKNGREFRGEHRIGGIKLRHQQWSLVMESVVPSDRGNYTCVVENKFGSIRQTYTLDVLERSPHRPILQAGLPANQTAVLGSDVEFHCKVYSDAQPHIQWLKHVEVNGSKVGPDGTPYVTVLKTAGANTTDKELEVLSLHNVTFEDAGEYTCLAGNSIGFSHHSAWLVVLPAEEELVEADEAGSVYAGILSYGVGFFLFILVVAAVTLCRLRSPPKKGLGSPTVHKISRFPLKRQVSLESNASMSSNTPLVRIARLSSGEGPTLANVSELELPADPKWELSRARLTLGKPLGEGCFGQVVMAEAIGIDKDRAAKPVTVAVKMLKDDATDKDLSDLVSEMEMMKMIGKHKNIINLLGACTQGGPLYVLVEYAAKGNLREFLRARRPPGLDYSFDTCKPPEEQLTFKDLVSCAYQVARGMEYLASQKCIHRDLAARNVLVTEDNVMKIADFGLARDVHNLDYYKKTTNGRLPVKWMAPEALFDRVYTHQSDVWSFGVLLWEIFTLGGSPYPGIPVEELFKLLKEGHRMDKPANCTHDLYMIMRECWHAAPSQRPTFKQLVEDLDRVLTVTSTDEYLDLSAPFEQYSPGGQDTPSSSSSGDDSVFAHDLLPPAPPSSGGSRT
- experimentNotes: phosphorylation enrichment, bacterial display (enrichment ratio); higher = better substrate or ligand; peptides without Tyr show the background
Assign class by phosphorylation enrichment: not lower than 0.7 means 1; lower than 0.7 means -1.

Does MPIPMYDGSQA [CARMIL1_Y637_A639G] have a reported phosphorylation enrichment of at least 0.7?
-1

Lookup DRSSLYLVAGP [KIAA1614_Y1083_N1078D]
-1

Lookup IHFAIYFLKYS [ARMC9_Y107_L108F]
1

Lookup FQVRRYDCDCD [CRYGS_Y21_G18V]
1

###

- targetEntity: FGFR1 (UniProt P11362)
- Sequence (P11362 whole entry, looked up): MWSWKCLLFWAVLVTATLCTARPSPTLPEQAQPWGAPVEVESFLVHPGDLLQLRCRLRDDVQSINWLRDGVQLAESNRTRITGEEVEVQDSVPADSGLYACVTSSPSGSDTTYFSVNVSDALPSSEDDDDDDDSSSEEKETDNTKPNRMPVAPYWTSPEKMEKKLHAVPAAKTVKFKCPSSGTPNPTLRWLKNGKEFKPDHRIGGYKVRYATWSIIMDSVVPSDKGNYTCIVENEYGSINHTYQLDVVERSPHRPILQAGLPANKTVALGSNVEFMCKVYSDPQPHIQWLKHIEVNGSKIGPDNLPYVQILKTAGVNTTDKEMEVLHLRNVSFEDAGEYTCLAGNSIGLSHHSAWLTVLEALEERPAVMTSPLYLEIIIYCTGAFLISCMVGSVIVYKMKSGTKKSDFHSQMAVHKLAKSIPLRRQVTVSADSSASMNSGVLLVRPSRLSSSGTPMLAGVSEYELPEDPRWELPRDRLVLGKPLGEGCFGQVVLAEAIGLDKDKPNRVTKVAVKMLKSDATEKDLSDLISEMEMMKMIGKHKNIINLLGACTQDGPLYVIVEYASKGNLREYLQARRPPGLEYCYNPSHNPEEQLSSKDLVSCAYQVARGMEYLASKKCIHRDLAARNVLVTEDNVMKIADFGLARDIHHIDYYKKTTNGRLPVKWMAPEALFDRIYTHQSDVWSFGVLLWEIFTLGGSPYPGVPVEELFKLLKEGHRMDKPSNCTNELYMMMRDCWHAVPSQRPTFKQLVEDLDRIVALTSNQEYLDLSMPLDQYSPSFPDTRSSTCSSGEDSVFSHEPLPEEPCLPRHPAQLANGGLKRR
- experimentNotes: phosphorylation enrichment, bacterial display (enrichment ratio); higher = better substrate or ligand; peptides without Tyr show the background
Give phosphorylation enrichment for every item shown.
One number for each entry.

• VPVNGYQPVTA [ROR2_Y824_P828T] = 0.375
• RRNVFYFSFLL [PTEN_Y177_Y174N_YF] = 0.743
• RESFKYLPSSL [CXXC1_Y218_F219L_YF] = 0.329
• VYAADYYKLLG [ROR2_Y645] = 12.8
• SFLFHYADDSF [RAB3C_Y50_R49H] = 0.438
• EKKKYYDTKIE [CASP5_Y104] = 0.365

Here's the next entry for you.
What does the data say about its phosphorylation enrichment? Entry: FQKNIYSEELR [LMNA_Y211]
0.801

###

- targetEntity: c-Src SH2;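 further: peptide library displayed on the E. coli surface as eCPX fusions, selected cells deep-sequenced, score is each peptide's frequency after selection divided by its frequency in the input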
- experimentNotes: SH2 binding enrichment of the phosphorylated peptide, bacterial display (enrichment ratio); higher = better substrate or ligand; peptides without Tyr show the background
propertyLabel: SH2 binding enrichment
One number for each entry.

Please review the following examples before continuing.
- PPAPRYHDSAV [LZTR1_Y119_H121D]: 0.551
- LRAGVYPEKDQ [DNM2_Y626]: 0.509
- WQQQSYLDSEI [CTNNB1_Y30_G34E]: 0.49
- PRPACYPSTVS [CACNA1C_Y1832_G1831C]: 0.65
- MAYDRYVAICS [OR8D4_Y123_C120Y]: 0.98
- FQLENYCNGGG [INS_Y108_YF]: 1.18

Return reported SH2 binding enrichment values for all items listed beneath this line.
1. QRIHDYYEHRY [HCN4_Y554]
2. QRASDYYSQQM [GBP6_Y333_A331S]
3. KIDAKYKKKIE [WDR19_Y1230]
4. NTGVFYDLFGG [PTPN11_Y63_D61V_YF]

1.36
0.39
0.367
0.743

###

Give phosphorylation enrichment for every item shown.
- targetEntity: EPHB2 (UniProt P29323)
- experimentNotes: phosphorylation enrichment, bacterial display (enrichment ratio); higher = better substrate or ligand; peptides without Tyr show the background
One number for each entry.

Please review the following examples before continuing.
• DRLASYLEKVR [KRT13_Y118] = 0.399
• NQDRTYFERVR [SPEN_Y632_S635R_YF] = 0.411
• LHRAHYDLHHT [AHSG_Y314_R317H] = 0.674

Return reported phosphorylation enrichment values for all items listed beneath this line.
1. VSYDEYRYRSV [CFTR_Y515]
2. SWSTSYSGFRC [NKAPL_Y91_Y96C_YF]
3. VTAALYGCLYE [BTD_Y536_R538C]
4. NTDETYCIDNE [TUBB2B_Y200]

1. 0.417
2. 0.597
3. 1.47
4. 0.797
